Tested on: SK-N-DZ
test: Cell viability, neuroblastoma cell lines (CellTiter-Glo)
Type: cell-based
recorded-conditions: Homo sapiens, 96 h, MYCN gene amplification present, 4 days
measured-endpoint: IC50 (µM)
Express it in µM; write the number only.

The compound identified as COc1ncnn2ccc(-c3cnc4nc(C)n(Cc5nnc([C@@H](C)F)o5)c4c3)c12 registered its IC50 at 0.0254
